Each entry below carries its recorded pIC50.
Target: Dual specificity tyrosine-phosphorylation-regulated kinase 1A (Homo sapiens)
pIC50: −log10 of the molar value.

// known answers, use as guide
> print(dat)
                                   compound  obs.value
1  CS(=O)(=O)N1CCC(Oc2cncc3ccc(-c4cnn5cc(C(F)(F)F)ccc45)cc23)CC1 [US20250066318, Compound I.85]     > 8.00
2  Cc1ncc2ccc(-c3cnn(C)c3)cc2c1O[C@H]1C[C@@H](O)C1 [US20250066318, Compound I.81]     > 8.00
3  COc1cncc2ccc(-c3cnn4cc(-c5ccc(=O)n(C)c5)cnc34)cc12 [US20250066318, Compound I.93]     > 8.00

// moving on: another record for pIC50
Look up and report measured pIC50 (Dual specificity tyrosine-phosphorylation-regulated kinase 1A (Homo sapiens)) for the following compound: CC(C)CN1CCC(C(=O)Nc2ncc(-c3ccc4cnc(C5CC5)cc4c3)s2)CC1 [US20250066318, Compound I.105]
7.26
